- Tested on: OVCAR-8 ovarian
- measurementDescription: NCI tumour cell line growth inhibition, 48 h
measuredAttribute: GI50

Past entries and their recorded results:
Fc1ccc(C2C3CCOc4c(ccc5ccccc45)C3=NN2c2ccccc2)cc1 (stereo not given); > 60.2 µM
CNCCNc1nc2ccccc2c2c(=O)c3cccc(C)c3sc12; 1.94 µM
Cc1cn2c(/C=C3/C(=O)Nc4ccc(Cl)cc43)c(C)nc2s1; 2.75 µM
COC(=O)[C@]12CC[C@@H](C)[C@H](C)[C@@H]1C1=CC[C@@H]3[C@@]4(C)CC(=O)[C@H](O)[C@@](C)(CO)[C@@H]4C(=O)C[C@@]3(C)[C@]1(C)CC2; 4.89 µM
O=C(Nc1ccccc1)Nc1ccc(Cl)c(Cl)c1; 3.2 µM

Dear colleague, could you send me GI50 for each of the items below? Thanks.
1. O=C1NC(=N[C@H](CO)c2ccccc2)S/C1=C\c1ccc2ncccc2c1
2. Cc1cc(N)cc(C)c1-c1c(Br)cc(N)cc1Br

Solution:
1. 5.27 µM
2. 4.41 µM

Please state GI50 for every molecule in the list that follows.
1. O=C1NC(=O)C(c2c[nH]c3ccccc23)=C1c1ccccc1
2. Fc1ccc(-c2nn3c(COc4ccc(Cl)cc4Cl)nnc3s2)cc1Oc1ccccc1
3. O=C(c1ccco1)c1c(C(F)(F)F)n([O-])c2ccc(F)cc2[n+]1=O
4. N=C1C(c2nc3ccccc3s2)=C(O)CN1c1cc(Cl)cc(Cl)c1
5. Cc1cc2c(cc1Cl)N1C(=O)NS(=O)(=O)N=C1NS2(=O)=O
6. COC1=CC2CCN3Cc4cc5c(cc4C(C1O)C23)OCC5 (stereo not given)
7. COc1cc(Cn2c(SCC(=O)Nc3ccc(Cl)cc3)nc3ccccc3c2=O)cc(OC)c1OC
8. COc1cc(NC(=O)c2ccccc2Nc2ccnc(C(F)(F)F)c2)cc(OC)c1OC

Solution:
1: > 25 µM; 2: 27.8 µM; 3: 0.558 µM; 4: > 100 µM; 5: > 100 µM; 6: 3.75 µM; 7: 4.82 µM; 8: 69.6 µM

* * *

- System: MALME-3M melanoma
- measurementDescription: NCI tumour cell line growth inhibition, 48 h
Where a SMILES comes first, the peptide text is derived from it. [ ]: non-standard residue; d: D form. The star is where a group is joined. Phe(4-NO2) = N[CH](Cc1ccc([N+](=O)[O-])cc1)C(=O)O; Boc = CC(C)(C)OC(=O)*
measuredAttribute: TGI

Illustrative cases are given below, each with its answer.
c1ccc2c(c1)N=C(c1ccc3ccccc3c1)CC(c1cccc3ccccc13)S2 (centres undefined); > 100 µM
COc1cc(/C=C/c2ccccn2)cc(OC)c1OC; > 10 µM

Please look at the items below and tell me TGI for each one, in order.
1. COC(=O)N/N=C(\c1ccccc1)c1ccc(OC)cc1
2. C[C@H](c1ccccc1)N(CCC(=O)O)C(=O)CCN(C(=O)CCN(C(=O)CCN[C@H](C)c1ccccc1)[C@H](C)c1ccccc1)[C@H](C)c1ccccc1
3. Nc1ccc(C(=O)Nc2ccccc2N)cc1
4. c1ccc2c3nnc(c2c1)SCCCSc1nnc(c2ccccc12)SCCCS3
5. COC(=O)CCC(NC(=O)OC(C)(C)C)C(=O)NC(Cc1ccc([N+](=O)[O-])cc1)C(=O)NC(CCC(=O)OC)C(=O)OC (centres undefined) (Boc-Glu(OMe)-[Phe(4-NO2)]-Glu(OMe)-OMe; configuration not given here)

Solution:
> 100 µM
> 100 µM
30.3 µM
72.1 µM
> 100 µM

Consider the following items and state reported TGI for each.
1. NCCNCCNc1ccc(NCCNCCN)c2c1C(=O)c1c(O)ccc(O)c1C2=O
2. CCOP(=O)(OCC)C(Nc1cccc(F)c1)c1ccc(N(C)C)cc1 (centres undefined)

Solution:
> 100 µM
> 100 µM

* * *

- System: NCI/ADR-RES ovarian
- measurementDescription: NCI tumour cell line growth inhibition, 48 h
Kindly supply the reported TGI values for the records listed here.

Would you please look over these solved cases?
O=C1NC(=O)C(c2c[nH]c3ccccc23)=C1c1ccccc1; > 25 µM
Cn1cnc2c1c(=O)n(CCNCCO)c(=O)n2C; > 100 µM
O=c1oc2c/c(=C\c3ccccn3)c(=O)c3cccc1c3-2; > 100 µM
CC/C(=N/N=C(N)N)c1ccc(NC(=O)Nc2ccc(/C(CC)=N/N=C(N)N)cc2)cc1; > 100 µM
COCCOC1=C(Cl)C(=O)c2c(O)ccc(O)c2C1=O; 8.5 µM

Could you tell me TGI for each of these compounds? They are listed below.
1. Cc1cccc(C)c1N1C(=O)C2c3[nH]c4ccccc4c3C3CCC(C(C)(C)C)CC3C2C1=O (stereo not given)
2. CCOC(=O)CC(=O)CSc1c(-c2ccccc2)c(=O)n(-c2ccccc2)c(=S)n1-c1ccccc1
3. Nc1nnc2oc3ccc4ccccc4c3cc1-2

Solution:
["48.8 µM", "> 100 µM", "> 100 µM"]

Can you give me TGI for all of these, one by one?
1. C=C1C(=O)C2(C)OC2(C)C1C(=O)O (stereo not given)
2. CCCCCCC1CC(=O)C1(Cl)Cl (stereo not given)

Solution:
["> 100 µM", "> 100 µM"]

* * *

- Test system: SR leukemia
- measurementDescription: NCI tumour cell line growth inhibition, 48 h
*1 amine or outer side, *2 acyl side, *3 side chain or, on linkers, in order; H or OH if unused. Where a SMILES comes first, the peptide text is derived from it. [ ]: non-standard residue; d: D form. ξ: configuration not given here. X22 = O=C(C(CC(O)CO)O[*:1])[*:2]; Ile(3ξ) = CCC(C)[C@H](N)C(=O)O; NMeV = CN[C@H](C(=O)O)C(C)C; NMeA = CN[C@@H](C)C(=O)O; βAla = NCCC(=O)O
measuredAttribute: TGI

// solved cases for TGI follow
COC(=O)C(/C(=N/N)C(=O)Nc1cccc(O)c1)c1nc2ccccc2[nH]c1=O (centres undefined); > 100 µM
CC/C(=N/N=C(N)N)c1ccc(NC(=O)Nc2ccc(/C(CC)=N/N=C(N)N)cc2)cc1; 14.9 µM
Nc1nc2ncn(CC(O)COC(=O)c3ccccc3)c2c(=O)[nH]1 (centres undefined); > 100 µM

I would be grateful if you could provide TGI for each of the following entries.
1. CC(C)(C)OC(=O)NC(CS(=O)(=O)O)C(=O)O (centres undefined)
2. COc1ccc2c(c1)/C(=C\c1c(Cl)n(-c3ccccc3)c3ccccc13)C(=O)N2
3. COC(=O)c1ccc(/C=C2\Oc3cc(O)ccc3C2=O)cc1
4. O=C(O)COc1ccc(C(=O)/C(SS/C(C(=O)c2ccc(OCC(=O)O)c(Cl)c2Cl)=C2\C=C(c3ccccc3Cl)SS2)=C2/C=C(c3ccccc3Cl)SS2)c(Cl)c1Cl

Solution:
1. > 100 µM
2. > 100 µM
3. > 100 µM
4. 6.91 µM

Parameter requested: TGI. Apply to each item below.
1. CCC(C)[C@@H]1NC(=O)[C@@H]2CCCN2C(=O)C(CC(O)CO)OC(=O)CCNC(=O)[C@H](C)N(C)C(=O)[C@H](C(C)C)N(C)C1=O (some centres undefined) (cyclo([Ile(3ξ)][NMeV][NMeA][βAla][X22]P))
2. C[N+]1(C)C[C@@H](O)C[C@@H]1C(=O)[O-]
3. CC1OC(OCC2OC(Oc3ccc(C4CC(=O)c5c(O)cc(O)cc5O4)cc3O)C(O)C(O)C2O)C(O)C(O)C1O (centres undefined)
4. COc1c(C)c(O)c2c(c1C)OC(c1ccccc1)CC2=O (centres undefined)
5. c1ccc2c3nnc(c2c1)SCCCSc1nnc(c2ccccc12)SCCCS3

Solution:
> 100 µM
> 100 µM
> 100 µM
75.5 µM
> 100 µM

Working through the 7 molecules below one at a time, give TGI for each.
1. CCSc1nc(-c2cccs2)nc2ccc(I)cc12
2. CC(NC(=O)OC(C)(C)C)C(=O)NC(Cc1ccccc1)C(=O)NCC(=O)Oc1c(Cl)c(Cl)c(Cl)c(Cl)c1Cl (centres undefined)
3. CN1CCN(c2ccc(Nc3ncc4cc5n(c4n3)C3(CCCCC3)CNC5=O)nc2)CC1
4. NC(=O)c1ncn(Cc2ccccc2)c1CNC(N)=S
5. CCCCCCCN(CCCCCCC)CC(O)c1cc2ccccc2c2cc(Br)ccc12 (centres undefined)
6. CCCCCC(=Nc1n[nH]nc1C(N)=O)OCC
7. COc1c(Br)cc(/C=C(\C#N)c2ccccn2)cc1Br

Solution:
["> 100 µM", "64.7 µM", "3.28 µM", "> 100 µM", "> 100 µM", "> 100 µM", "> 100 µM"]

* * *

- Tested on: SR leukemia
- measurementDescription: NCI tumour cell line growth inhibition, 48 h
measuredAttribute: TGI

Below, 2 molecules whose answers are already recorded.
COC(=O)C1(O)c2ccccc2N=C2C1CCN2C (centres undefined); > 100 µM
CCOC(=O)C1=C(c2ccccc2)N(C(C)=O)Cc2ccccc21; 41.7 µM

Report TGI for every entry below.
1. O=c1c2cc(S(=O)(=O)O)ccc2nc(COc2ccc(Oc3ccc(Cl)cc3Cl)cc2)n1C(=S)Nc1ccc(Cl)cc1
2. O=C(/C=C/c1ccccc1)OCC1=C[C@@H](O)[C@@H]2C=CO[C@@H](OC3OC(CO)C(O)C(O)C3O)[C@H]12 (some centres undefined)
3. NCCNCCCNC(=O)c1cc(-c2ccccc2)nc2ccccc12
4. C[N+](C)(C)CCOP(=O)([O-])OCCNC(=O)c1ccc2ccccc2c1
5. COC(=O)c1ccc2c(C(=Nc3ccc(N(C)C(=O)CN4CCN(C)CC4)cc3)c3ccccc3)c(O)[nH]c2c1
6. CNc1ncnc2c1cnn2CCCCO
7. Fc1ccc(C2C3CCOc4c(ccc5ccccc45)C3=NN2c2ccccc2)cc1 (centres undefined)

Solution:
1. 22.9 µM
2. > 100 µM
3. 82.3 µM
4. > 100 µM
5. > 44.7 µM
6. > 100 µM
7. > 100 µM

Provide the reported TGI of each entry below, same order.
1. c1cc2c(c(NC3=NCCN3)c1)CCCC2
2. COc1c2ccccc2c(O)c2c(=O)ccn(C)c12
3. N=c1oc2ccccc2cc1C(=O)Nc1nccs1

Solution:
["> 100 µM", "81.8 µM", "47.7 µM"]

Return reported TGI values for all items listed beneath this line.
1. O=C1CC[C@@H](NC(=O)Cc2ccccc2)C(=O)N1
2. CC1(C)CC(N2CCN(C3CC(C)(C)NC(C)(C)C3)CC2)CC(C)(C)N1

Solution:
1. > 100 µM
2. > 100 µM
